Tested on: SF-295 CNS
Assay: NCI-60 one-dose screen, 48 h (100 = growth as untreated, 0 = no growth, -100 = all killed)
Details: 10 µM unless noted
Compounds without any hit were thinned out: in the full panel of roughly 83,000, 20% have a hit.

{"Molecule": "COc1ccc(NC(=O)c2ccc(/C=C/C(=O)c3ncc[nH]3)cc2)cc1", "growth (%)": 88.4}
{"Molecule": "O=[N+]([O-])c1cnc(N2CCN(CC3CC3)CC2)nc1N1CCN(CC2CC2)CC1", "growth (%)": 99.5}
{"Molecule": "COc1ccc(-c2cc(Nc3ccnc(N4CCOCC4)n3)on2)cc1", "growth (%)": 39.3}
{"Molecule": "COc1ccc(C2CC(c3ccc(Cl)cc3)=NN2/C=C2\\SC(=S)N(NC(=O)Cc3ccccc3Nc3c(Cl)cccc3Cl)C2=O)cc1 (stereo not drawn)", "growth (%)": 88}
{"Molecule": "Cc1ccc(/C=C2\\SC(=S)N(CC(=O)NCCCN3CCOCC3)C2=O)cc1", "growth (%)": 91.1}
{"Molecule": "N=C(N)c1ccc(-c2ccc(-c3ccc4ccccc4c3)s2)s1", "growth (%)": 22.3}
{"Molecule": "CC[C@]1(O)C[C@@H]2CN(CCc3c([nH]c4ccccc34)[C@@](C(=O)OC)(c3cc4c(cc3OC)N(C)[C@H]3[C@@](O)(C(N)=O)[C@H](O)[C@]5(CC)[C@@H]6C[C@@H]6CN6CC[C@]43[C@@H]65)C2)C1", "growth (%)": 15.8}
{"Molecule": "NC(=O)c1cc(Br)ccc1NC(=O)/C=C/c1ccccc1", "growth (%)": 51.3}
